recorded.endpoint: melting point

[Q] State the recorded melting point for this entry: CN1CC(=O)N2[C@@H](c3ccc4c(c3)OCO4)c3c([nH]c4ccccc34)C[C@@H]2C1=O [Example 5(b)]
[A] 274 to 277 °C

[Q] State the recorded melting point for this entry: CN1CC(=O)N2[C@H](c3ccc4c(c3)OCO4)c3sc4ccccc4c3C[C@@H]2C1=O (racemic) [Example 4]
[A] 245 to 266 °C

[Q] State the recorded melting point for this entry: CN1CC(=O)N2[C@H](c3ccc4c(c3)OCO4)c3c([nH]c4ccccc34)C[C@@H]2C1=O [Example 5(a)]
[A] 274 to 277 °C

[Q] State the recorded melting point for this entry: CN1CC(=O)N2[C@H](c3ccc4c(c3)OCO4)c3[nH]c4ncccc4c3C[C@@H]2C1=O (racemic) [Example 1]
[A] 262 to 276 °C
